test system: COS-1; assay: Cytotoxicity against Chlorocebus aethiops COS1 cells assessed as reduction in cell viability at 10 uM after 24 hrs by CellTiter-Glo Luminescent Cell Viability assay relative to control; assay type: cell-based; details: cos-1, 24 h

Compound: COc1ccc(-c2cc(NC(=O)c3ccc(C(C)(C)C)cc3)n[nH]2)cc1
Activity: Non-Toxic
--
Compound: CCN(CC)c1ccc(NC(=O)c2c(-c3ccccc3)noc2C)cc1
Activity: > 10%
--
Compound: CCN(CC)c1ccc(NC(=O)c2cnsc2)cc1
Activity: Non-Toxic
--
Compound: Cc1onc(-c2ccccc2)c1C(=O)N(C1=NC(C)CS1)c1ccc(Cl)cc1 (stereo unspecified)
Activity: Non-Toxic
--
Compound: Cc1onc(-c2ccccc2)c1COc1ccc(C(=O)OCCC#N)cc1
Activity: > 10%
--
Compound: CCC(=O)N(Cc1ccc(N(CC)CC)cc1)c1c(-c2ccccc2)noc1C
Activity: > 10%
